Source of measurements: PubChem BioAssay AID1159580

Assay method text: chemical genetic growth profiling, strain panel (AID 1159580);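 also: tested at 20 µM; growth read once vehicle control cultures reached saturation at 30 °C; 1 = growth at the plate median or of vehicle wells; lower values mean less growth of the strain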
Condition parameters: S. cerevisiae deletion strains, growth OD, locus YDL192W, strain arf1, stronger effect = lower value
Hit rate of the full screen: of about 5,500 compounds, about 2,000 (36%) were called active. Inconclusive results (about 18%) are left out. This is one part of the list.
Listing: normalized growth of selected compounds
# respond with the number and nothing more

Known results for compounds:
{"Compound": "C=C[C@@H](C1=CC(=O)C(OC)=C(OC)C1=O)c1ccccc1", "normalized growth": 0.266}
{"Compound": "COC(=O)C[C@H]1C(C)(C)C(=O)[C@@H]2CC3=C4CC(=O)O[C@@H](c5ccoc5)[C@]4(C)CCC3[C@@]1(C)C2=O (some centres not stated)", "normalized growth": 1.01}
{"Compound": "C1CCN2CC3CC(CN4CCCCC34)C2C1 (configuration not stated)", "normalized growth": 1.01}
{"Compound": "O=C1CCCC2C3CC(CN12)[C@@H]1CCCCN1C3 (some centres not stated)", "normalized growth": 0.987}
{"Compound": "CC(=O)Oc1ccc(Cl)c2cccnc12", "normalized growth": 0.0619}
{"Compound": "COc1cc2c(c(OC)c1OC)-c1ccc(OC)c(=O)cc1[C@@H](NC(C)=O)CC2", "normalized growth": 1.02}
{"Compound": "C=CC(C1=CC(=O)C(OC)=CC1=O)c1ccccc1 (configuration not stated)", "normalized growth": 0.843}
{"Compound": "NCCCC[C@H](N[C@@H](CCc1ccccc1)C(=O)O)C(=O)N1CCC[C@H]1C(=O)O", "normalized growth": 0.992}
{"Compound": "CCCC(C)C1(CC)C(=O)NC(=O)NC1=O (configuration not stated)", "normalized growth": 1.02}
{"Compound": "C=CC(C1=CC(=O)C(OC)=CC1=O)c1ccc(O)cc1 (configuration not stated)", "normalized growth": 0.981}

IN: // query normalized growth value for entry C=CC(C1=CC(=O)C=CC1=O)c1ccccc1 (configuration not stated)
OUT: 0.956

IN: Record request: normalized growth value, item CCCC(C)C1(CC)C(=O)N=C(S)NC1=O (configuration not stated)
OUT: 0.0766

IN: I have this compound here, O=C1C=CC2=C3c4cc(O)c(O)cc4C[C@@]3(O)COC2=C1 , and I need its recorded normalized growth.
OUT: 1.01

IN: Field request: normalized growth | item: C1CCN2C[C@@H]3C[C@H](CN4CCCC[C@@H]34)[C@H]2C1
OUT: 1.01

IN: What value of measured normalized growth is listed for NCC(CC(=O)O)c1ccc(Cl)s1 (configuration not stated) ?
OUT: 0.987

IN: Which measured normalized growth value corresponds to C=C(CC)C(=O)c1ccc(OCC(=O)O)c(Cl)c1Cl ?
OUT: 0.972

IN: normalized growth for COC(=O)[C@]1(C)CC[C@]2(C)CC[C@]3(C)C4=CCc5c(cc(O)c(O)c5C)[C@]4(C)CC[C@@]3(C)C2C1 (some centres not stated) ?
OUT: 0.968

IN: Value lookup for normalized growth; key = O=C1C=CC2=C3c4cc(O)c(O)cc4CC3(O)COC2=C1O (configuration not stated)
OUT: 0.998

IN: Requested field: normalized growth. Item: Cc1c(O)c(O)cc2c1CC=C1[C@@]2(C)CC[C@@]2(C)C3C[C@](C)(C(=O)O)CC[C@]3(C)CC[C@]12C (some centres not stated)
OUT: 0.889

IN: Quick check: normalized growth of COc1c2c(cc3c1OCO3)CCN(C)C2 ?
OUT: 1.01

IN: Reported normalized growth for CCCC1O[C@@H]2CC3C4CCC5=CC(=O)C=CC5(C)C4[C@@H](O)CC3(C)[C@]2(C(=O)CO)O1 (some centres not stated) : what is it?
OUT: 1.02

IN: GET /values?readout=normalized growth&item= COc1cc2c(c(OC)c1OC)-c1ccc(O)c(=O)cc1[C@@H](NC(C)=O)CC2
OUT: 0.978
